System: Escherichia coli TOP10
Assay: shrunken log2 fold change of peptide-encoding DNA abundance (4.5 h post-induction vs induction); higher = less antimicrobial activity (less host growth inhibition)
Conditions: time post-induction: 4.5 h; library: site-saturation at positions 5, 18, 19, 20

[
  {
    "itemSequence": "RRIRERPPRLPRPRPRPIYTPRP",
    "studySystem": "Escherichia coli TOP10",
    "shrunken log2 fold change": 0.036
  },
  {
    "itemSequence": "RRIRSRPPRLPRPRPRPWHYPRP",
    "studySystem": "Escherichia coli TOP10",
    "shrunken log2 fold change": -0.162
  },
  {
    "itemSequence": "RRIRFRPPRLPRPRPRPPFPPRP",
    "studySystem": "Escherichia coli TOP10",
    "shrunken log2 fold change": 0.454
  },
  {
    "itemSequence": "RRIRPRPPRLPRPRPRPHSEPRP",
    "studySystem": "Escherichia coli TOP10",
    "shrunken log2 fold change": -0.0259
  },
  {
    "itemSequence": "RRIRGRPPRLPRPRPRPQRGPRP",
    "studySystem": "Escherichia coli TOP10",
    "shrunken log2 fold change": 0.119
  },
  {
    "itemSequence": "RRIRARPPRLPRPRPRPVKVPRP",
    "studySystem": "Escherichia coli TOP10",
    "shrunken log2 fold change": 0.0388
  },
  {
    "itemSequence": "RRIRARPPRLPRPRPRPWGDPRP",
    "studySystem": "Escherichia coli TOP10",
    "shrunken log2 fold change": 0.376
  }
]

----------
Test system: Escherichia coli TOP10
Test: shrunken log2 fold change of peptide-encoding DNA abundance (4.5 h post-induction vs induction); higher = less antimicrobial activity (less host growth inhibition)
Settings: time post-induction: 4.5 h; library: site-saturation at positions 5, 18, 19, 20
Listed here: items and their measured shrunken log2 fold change.
measuredProperty: shrunken log2 fold change

[
  {
    "itemSequence": "RRIRYRPPRLPRPRPRPFATPRP",
    "testValue": -0.49
  },
  {
    "itemSequence": "RRIRIRPPRLPRPRPRPSRGPRP",
    "testValue": 0.242
  },
  {
    "itemSequence": "RRIRYRPPRLPRPRPRPQPVPRP",
    "testValue": -0.258
  },
  {
    "itemSequence": "RRIRKRPPRLPRPRPRPCQVPRP",
    "testValue": -0.00846
  },
  {
    "itemSequence": "RRIRRRPPRLPRPRPRPYYLPRP",
    "testValue": -0.308
  },
  {
    "itemSequence": "RRIRKRPPRLPRPRPRPLERPRP",
    "testValue": 0.529
  },
  {
    "itemSequence": "RRIRRRPPRLPRPRPRPCSGPRP",
    "testValue": -0.0988
  },
  {
    "itemSequence": "RRIRYRPPRLPRPRPRPHWSPRP",
    "testValue": -0.318
  },
  {
    "itemSequence": "RRIRDRPPRLPRPRPRPPHQPRP",
    "testValue": -0.022
  },
  {
    "itemSequence": "RRIRRRPPRLPRPRPRPEPFPRP",
    "testValue": -0.0448
  },
  {
    "itemSequence": "RRIRTRPPRLPRPRPRPIMQPRP",
    "testValue": -0.201
  },
  {
    "itemSequence": "RRIRCRPPRLPRPRPRPMPIPRP",
    "testValue": -0.197
  },
  {
    "itemSequence": "RRIRVRPPRLPRPRPRPNAWPRP",
    "testValue": 0.0914
  },
  {
    "itemSequence": "RRIRKRPPRLPRPRPRPHALPRP",
    "testValue": 0.154
  },
  {
    "itemSequence": "RRIRNRPPRLPRPRPRPHEAPRP",
    "testValue": -0.0663
  },
  {
    "itemSequence": "RRIRYRPPRLPRPRPRPYSDPRP",
    "testValue": -0.237
  },
  {
    "itemSequence": "RRIRGRPPRLPRPRPRPGDHPRP",
    "testValue": 0.333
  },
  {
    "itemSequence": "RRIRCRPPRLPRPRPRPYWCPRP",
    "testValue": -0.201
  },
  {
    "itemSequence": "RRIRHRPPRLPRPRPRPAQIPRP",
    "testValue": 0.276
  },
  {
    "itemSequence": "RRIRHRPPRLPRPRPRPWEKPRP",
    "testValue": -0.359
  },
  {
    "itemSequence": "RRIRTRPPRLPRPRPRPDAYPRP",
    "testValue": -0.134
  },
  {
    "itemSequence": "RRIRNRPPRLPRPRPRPRRSPRP",
    "testValue": 0.428
  },
  {
    "itemSequence": "RRIRRRPPRLPRPRPRPKVAPRP",
    "testValue": 0.0861
  },
  {
    "itemSequence": "RRIRGRPPRLPRPRPRPKTWPRP",
    "testValue": 0.155
  },
  {
    "itemSequence": "RRIRYRPPRLPRPRPRPLLIPRP",
    "testValue": -0.798
  },
  {
    "itemSequence": "RRIRHRPPRLPRPRPRPMRVPRP",
    "testValue": -0.0146
  },
  {
    "itemSequence": "RRIRIRPPRLPRPRPRPTLLPRP",
    "testValue": -0.374
  },
  {
    "itemSequence": "RRIRMRPPRLPRPRPRPNCGPRP",
    "testValue": -0.216
  },
  {
    "itemSequence": "RRIRWRPPRLPRPRPRPKNPPRP",
    "testValue": 0.152
  },
  {
    "itemSequence": "RRIRHRPPRLPRPRPRPDDTPRP",
    "testValue": -0.00674
  },
  {
    "itemSequence": "RRIRNRPPRLPRPRPRPQELPRP",
    "testValue": -0.14
  },
  {
    "itemSequence": "RRIRIRPPRLPRPRPRPRWQPRP",
    "testValue": 0.128
  },
  {
    "itemSequence": "RRIRFRPPRLPRPRPRPVSTPRP",
    "testValue": -0.476
  },
  {
    "itemSequence": "RRIRYRPPRLPRPRPRPNGSPRP",
    "testValue": -0.289
  },
  {
    "itemSequence": "RRIRTRPPRLPRPRPRPFKPPRP",
    "testValue": -0.0194
  },
  {
    "itemSequence": "RRIRPRPPRLPRPRPRPNVYPRP",
    "testValue": -0.177
  },
  {
    "itemSequence": "RRIRFRPPRLPRPRPRPTCTPRP",
    "testValue": -0.0787
  },
  {
    "itemSequence": "RRIRFRPPRLPRPRPRPTELPRP",
    "testValue": -0.161
  },
  {
    "itemSequence": "RRIRIRPPRLPRPRPRPTKQPRP",
    "testValue": -0.242
  },
  {
    "itemSequence": "RRIRARPPRLPRPRPRPFMCPRP",
    "testValue": 0.618
  },
  {
    "itemSequence": "RRIRYRPPRLPRPRPRPTEAPRP",
    "testValue": 0.0329
  },
  {
    "itemSequence": "RRIRQRPPRLPRPRPRPMKMPRP",
    "testValue": 0.0133
  },
  {
    "itemSequence": "RRIRKRPPRLPRPRPRPTRKPRP",
    "testValue": 3.78
  },
  {
    "itemSequence": "RRIRSRPPRLPRPRPRPRQHPRP",
    "testValue": 0.169
  },
  {
    "itemSequence": "RRIRERPPRLPRPRPRPAPHPRP",
    "testValue": 0.704
  },
  {
    "itemSequence": "RRIRYRPPRLPRPRPRPLPIPRP",
    "testValue": -0.722
  },
  {
    "itemSequence": "RRIRMRPPRLPRPRPRPAQNPRP",
    "testValue": 1.07
  },
  {
    "itemSequence": "RRIRIRPPRLPRPRPRPMIKPRP",
    "testValue": -0.761
  }
]

----------
// reported shrunken log2 fold change for each item listed
System: Escherichia coli TOP10;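 note: peptides expressed intracellularly from a pBAD plasmid library in pooled LB shake-flask culture, induced with 0.3% L-arabinose, DNA abundance read by NGS, three biological replicates, DESeq2 with apeglm shrinkage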
Assay: shrunken log2 fold change of peptide-encoding DNA abundance (4.5 h post-induction vs induction); higher = less antimicrobial activity (less host growth inhibition)
Conditions: time post-induction: 4.5 h; library: site-saturation at positions 5, 18, 19, 20

[
  {
    "itemSequence": "RRIRKRPPRLPRPRPRPFLSPRP",
    "shrunken log2 fold change": -0.0256
  },
  {
    "itemSequence": "RRIRNRPPRLPRPRPRPSTTPRP",
    "shrunken log2 fold change": -0.47
  },
  {
    "itemSequence": "RRIRLRPPRLPRPRPRPYCIPRP",
    "shrunken log2 fold change": -0.121
  },
  {
    "itemSequence": "RRIRARPPRLPRPRPRPYGMPRP",
    "shrunken log2 fold change": -0.684
  },
  {
    "itemSequence": "RRIRDRPPRLPRPRPRPRQGPRP",
    "shrunken log2 fold change": 0.0779
  },
  {
    "itemSequence": "RRIRKRPPRLPRPRPRPGDVPRP",
    "shrunken log2 fold change": 0.278
  },
  {
    "itemSequence": "RRIRMRPPRLPRPRPRPYKYPRP",
    "shrunken log2 fold change": -0.851
  },
  {
    "itemSequence": "RRIRYRPPRLPRPRPRPQIIPRP",
    "shrunken log2 fold change": -0.248
  },
  {
    "itemSequence": "RRIRVRPPRLPRPRPRPTDGPRP",
    "shrunken log2 fold change": 0.0478
  },
  {
    "itemSequence": "RRIRKRPPRLPRPRPRPKVNPRP",
    "shrunken log2 fold change": 0.0581
  },
  {
    "itemSequence": "RRIRGRPPRLPRPRPRPKIPPRP",
    "shrunken log2 fold change": 0.0163
  },
  {
    "itemSequence": "RRIRDRPPRLPRPRPRPSYRPRP",
    "shrunken log2 fold change": 0.0164
  },
  {
    "itemSequence": "RRIRRRPPRLPRPRPRPLNKPRP",
    "shrunken log2 fold change": 0.0514
  },
  {
    "itemSequence": "RRIRYRPPRLPRPRPRPMKLPRP",
    "shrunken log2 fold change": -0.58
  },
  {
    "itemSequence": "RRIRQRPPRLPRPRPRPFCNPRP",
    "shrunken log2 fold change": 0.0828
  },
  {
    "itemSequence": "RRIRPRPPRLPRPRPRPYPEPRP",
    "shrunken log2 fold change": -0.421
  },
  {
    "itemSequence": "RRIRVRPPRLPRPRPRPNMYPRP",
    "shrunken log2 fold change": 0.0145
  },
  {
    "itemSequence": "RRIRHRPPRLPRPRPRPQNTPRP",
    "shrunken log2 fold change": -0.871
  },
  {
    "itemSequence": "RRIRERPPRLPRPRPRPFFKPRP",
    "shrunken log2 fold change": -0.37
  },
  {
    "itemSequence": "RRIRDRPPRLPRPRPRPPFEPRP",
    "shrunken log2 fold change": 0.254
  },
  {
    "itemSequence": "RRIRMRPPRLPRPRPRPNFDPRP",
    "shrunken log2 fold change": 0.622
  },
  {
    "itemSequence": "RRIRRRPPRLPRPRPRPMTMPRP",
    "shrunken log2 fold change": 0.0735
  },
  {
    "itemSequence": "RRIRLRPPRLPRPRPRPEWCPRP",
    "shrunken log2 fold change": -0.131
  },
  {
    "itemSequence": "RRIRFRPPRLPRPRPRPAPGPRP",
    "shrunken log2 fold change": 0.668
  },
  {
    "itemSequence": "RRIRMRPPRLPRPRPRPNWTPRP",
    "shrunken log2 fold change": 0.132
  },
  {
    "itemSequence": "RRIRTRPPRLPRPRPRPAMQPRP",
    "shrunken log2 fold change": -0.00933
  }
]
